- test method notes: Cyclic voltammetry in 0.1 M TBABF4/DMSO
- conditions: half-wave potential, E1/2 = (Epa + Epc)/2; TBABF4 0.1 M/DMSO, 100 mV/s, vs Ag/Ag+
For each record, write down the corresponding E1/2.
Note: unit V is implicit; provide only the numeric part.

Inquiry: Recall and state the measured E1/2 for O=C1C=C(NC(Cc2ccc(O)cc2)C(=O)O)C(=O)c2ccccc21 (stereo not drawn) .
Reply text: −1.21

Inquiry: Recall and state the measured E1/2 for CC(C)C(NC1=CC(=O)c2ccccc2C1=O)C(=O)O (stereo not drawn) .
Reply text: −1.21

Inquiry: Recall and state the measured E1/2 for CC(C)C(NC1=C(Cl)C(=O)c2ccccc2C1=O)C(=O)O (stereo not drawn) .
Reply text: −1.12

Inquiry: Recall and state the measured E1/2 for O=C1C(Cl)=C(NC(Cc2ccc(O)cc2)C(=O)O)C(=O)c2ccccc21 (stereo not drawn) .
Reply text: −1.10

Inquiry: Recall and state the measured E1/2 for O=C1C=C(NC(Cc2c[nH]c3ccccc23)C(=O)O)C(=O)c2ccccc21 (stereo not drawn) .
Reply text: −1.24

Inquiry: Recall and state the measured E1/2 for O=C1C(Cl)=C(NC(Cc2c[nH]c3ccccc23)C(=O)O)C(=O)c2ccccc21 (stereo not drawn) .
Reply text: −1.11

The origin of these recorded values is paper PMC7248809.
